Origin of the recorded values: patent US6107316A

assay-remarks: cytotoxicity towards L929 host cells (Cell Titer 96)
details: mouse, % Inhibition of host cell growth (values in parenthesis), L929, 25.0 μg/ml, 24 hours
Collected inhibition at 24 h values appear next to each entry.
// return numeric value only (unit: %, not printed)

- CCC(C)(NC(=O)c1cc(Cl)c(C)c(Cl)c1)C(=O)CCl (centres unmarked): 2.2

Now consider the entry below.
Input line: # input compound: CCC(C)(NC(=O)c1cc(F)c(F)c(F)c1)C(=O)CCl (centres unmarked) ; wanted: its inhibition at 24 h
Output line: 22.6

====

Collected inhibition at 24 h values appear next to each entry.
assay-remarks: cytotoxicity towards HFF host cells (Cell Titer 96)
details: human, % Inhibition of host cell growth (values in parenthesis), 5.0 μg/ml, 24 hours
// return numeric value only (unit: %, not printed)

Some solved entries appear below for comparison.
- O=C1C(O)=C([C@H]2CC[C@H](c3ccc(Cl)cc3)CC2)C(=O)c2ccccc21 [Atovaquone, reference compound]: 6.2
- CCC(C)(NC(=O)c1cc(Cl)cc(Cl)c1)C(=O)CCl (centres unmarked) [Compound 5]: 8
- CCC(C)(NC(=O)c1cc(Br)c(N)c(Br)c1)C(=O)CCl (centres unmarked) [Compound 14]: 5.8
- CCC(C)(NC(=O)c1cc(Cl)c(N)c(Cl)c1)C(=O)CCl (centres unmarked) [Compound 1]: 14.7
- CCC(C)(NC(=O)c1cc(F)c(F)c(F)c1)C(=O)CCl (centres unmarked) [Compound 11]: 2.1
- CCC(C)(NC(=O)c1cc(Cl)c(F)c(Cl)c1)C(=O)CCl (centres unmarked) [Compound 9]: 2.4

Input line: # input molecule: CCC(C)(NC(=O)c1cc(F)cc(F)c1)C(=O)CCl (centres unmarked) [Compound 12] ; wanted: its inhibition at 24 h
Output line: 7.7

Input line: # input molecule: CCC(C)(NC(=O)c1cc(Cl)c(C)c(Cl)c1)C(=O)CCl (centres unmarked) [Compound 10] ; wanted: its inhibition at 24 h
Output line: 1.4

====

Collected inhibition at 48 h values appear next to each entry.
assay-remarks: cytotoxicity towards L929 host cells (Cell Titer 96)
details: mouse, % Inhibition of host cell growth (values in parenthesis), L929, 0.5 μg/ml, 48 hours
// return numeric value only (unit: %, not printed)

Some solved entries appear below for comparison.
* O=C1C(O)=C([C@H]2CC[C@H](c3ccc(Cl)cc3)CC2)C(=O)c2ccccc21 [Atovaquone, reference compound] | 15
* CCC(C)(NC(=O)c1cc(Cl)c(N)c(Cl)c1)C(=O)CCl (stereo not shown) [Compound 1] | 11.6

Input line: # input compound: CCC(C)(NC(=O)c1cc(Cl)c(C)c(Cl)c1)C(=O)CCl (stereo not shown) [Compound 10] ; wanted: its inhibition at 48 h
Output line: 0

Input line: # input compound: CCC(C)(NC(=O)c1cc(F)cc(F)c1)C(=O)CCl (stereo not shown) [Compound 12] ; wanted: its inhibition at 48 h
Output line: 0

Input line: # input compound: CCC(C)(NC(=O)c1cc(Cl)c(F)c(Cl)c1)C(=O)CCl (stereo not shown) [Compound 9] ; wanted: its inhibition at 48 h
Output line: 0

Input line: # input compound: CCC(C)(NC(=O)c1cc(Br)c(N)c(Br)c1)C(=O)CCl (stereo not shown) [Compound 14] ; wanted: its inhibition at 48 h
Output line: 0

Input line: # input compound: CCC(C)(NC(=O)c1cc(Cl)cc(Cl)c1)C(=O)CCl (stereo not shown) [Compound 5] ; wanted: its inhibition at 48 h
Output line: 0
